Where a name gives a salt, the structure may show the parent alone.
Binary call on melting point: True from 200 °C upward, False beneath that.

Query: Please check the record O=c1[nH]c2ccc(Br)cc2cc1C(c1ccc(Cl)cc1)C1(O)CCNC(CC2CCCCC2)C1 (stereo not shown) (as salt: hydrochloride) [Compound 254] and state if its melting point is at or above 200 °C.
Result: True

Query: Query COc1nc2ccc(SC)cc2cc1C(c1ccc(Cl)cc1)C1(O)CCNCC1Cc1cccc(F)c1 (stereo not shown) (as salt: fumarate) [Compound 284] next
Result: False

====

Counter-ions that a name gives are not always drawn.
The reader will find reported melting point values listed item by item below.
Form entry: value (°C) — number only.

These solved cases illustrate the format of a correct answer.
COc1nc2ccc(Cl)cc2cc1C(c1ccc(Cl)cc1)C1(O)CCNC(Cc2ccccc2)C1 (stereo not shown) [Compound 37] | 107
COc1nc2ccc(Br)cc2cc1C(c1cccnc1)C1(O)CCNC(Cc2ccccc2)C1 (stereo not shown) (as salt: fumarate) [Compound 428] | 217
COc1nc2ccc(S(C)(=O)=O)cc2cc1C(c1ccc(Cl)cc1)C1(O)CCNCC1Cc1cccc[n+]1[O-] (stereo not shown) [Compound 447] | 234

Query: Can you share its melting point? I mean this compound: COc1nc2ccccc2cc1C(c1ccccc1)C1(O)CCNC(c2ccccc2)C1 (stereo not shown) (as salt: fumarate) [Compound 414]
Result: 196

====

Structures can show the parent of a compound that is named as a salt.
melting point strictly under 200 °C means yes (1); at 200 °C or over means no (0).

COc1nc2ccc(F)cc2cc1C(c1ccc(Cl)cc1)C1(O)CCNC(Cc2ccccc2)C1 (stereo not shown) [Compound 52] | yes (1)
COc1nc2ccc(Br)cc2cc1C(c1ccc(Cl)cc1)C1(O)CCNC(Cc2ccc(F)cc2F)C1 (stereo not shown) [Compound 320] | yes (1)
COc1nc2ccc(Br)cc2cc1C(c1ccc(Cl)cc1)C1(O)CCN(Cc2ccccc2)C(Cc2ccccc2)C1 (stereo not shown) [Compound 75] | yes (1)
COc1nc2ccc(Br)cc2cc1C(c1ccc(Cl)cc1)C1(O)CCNC(Cc2ccc(F)cc2F)C1 (stereo not shown) (as salt: trifluoroacetate) [Compound 313] | yes (1)
COc1nc2ccc(S(C)(=O)=O)cc2cc1C(c1ccccc1)C1(O)CCNC(c2ccc(F)cc2C)C1 (stereo not shown) [Compound 251] | yes (1)

Query: Determine whether this compound shows melting point lower than 200 °C (ties excluded): COc1nc2ccc(Br)cc2cc1C(c1cccc(Cl)c1)C1(O)CCNC(c2ccc(F)cc2C)C1 (stereo not shown) (as salt: fumarate) [Compound 149]
Result: yes (1)

Query: Query COc1nc2ccc(SC)cc2cc1C(c1ccc(Cl)cc1)C1(O)CCNC(Cc2ccccc2)C1 (stereo not shown) [Compound 92] next
Result: yes (1)

====

The reader will find reported melting point values listed item by item below.
Structures can show the parent of a compound that is named as a salt.
Form entry: value (°C) — number only.

COc1nc2ccc(Cl)cc2cc1C(c1ccc(Cl)cc1)C1(O)CCNC(Cc2ccccc2)C1 (stereo not shown) [Compound 96] | 114
COc1nc2ccc(Br)cc2cc1C(c1cccc(Cl)c1)C1(O)CCNC(c2ccc(F)cc2C)C1 (stereo not shown) (as salt: fumarate) [Compound 152] | 170
COc1nc2ccc(SC)cc2cc1C(c1ccc(Cl)cc1)C1(O)CCNC(Cc2ccc(F)cc2)C1 (stereo not shown) [Compound 300] | 90
COc1nc2ccc(SC)cc2cc1C(c1ccccc1)C1(O)CCNC(c2ccc(F)cc2C)C1 (stereo not shown) [Compound 197] | 138
COc1nc2ccc(SC)cc2cc1C(c1ccc(Cl)cc1)C1(O)CCNC(Cc2ccc(F)cc2)C1 (stereo not shown) [Compound 302] | 120
CC1CC(O)(C(c2ccc(Cl)cc2)c2cc3cc(Br)ccc3[nH]c2=O)CCN1 (stereo not shown) (as salt: hydrochloride) [Compound 131] | 241
COc1nc2ccc(Br)cc2cc1C(c1ccccc1)C1(O)CCNCC1C (stereo not shown) [Compound 425] | 125
COc1nc2ccc(Cl)cc2cc1C(c1ccc(Cl)cc1)C1(O)CCNC(c2ccccc2)C1 (stereo not shown) (as salt: fumarate) [Compound 405] | 184

Query: Can you share its melting point? I mean this molecule: COc1nc2ccc(SC)cc2cc1C(c1ccccc1)C1(O)CCNC(Cc2ccccc2)C1 (stereo not shown) (as salt: fumarate) [Compound 141]
Result: 155

Query: Query COc1nc2ccc(Br)cc2cc1C(c1ccc(Cl)cc1)C1(O)CCNC(Cc2ccccc2)C1 (stereo not shown) [Compound 31] next
Result: 183

Query: Query COc1nc2ccccc2cc1C(c1ccccc1)C1(O)CCNC(Cc2ccccc2)C1 (stereo not shown) (as salt: fumarate) [Compound 401] next
Result: 240

Query: Query COc1nc2ccc(S(C)(=O)=O)cc2cc1C(c1cccc(Cl)c1)C1(O)CCNC(Cc2ccc(F)cc2F)C1 (stereo not shown) (as salt: trifluoroacetate) [Compound 325] next
Result: 144

Query: Query COc1nc2ccc(Cl)cc2cc1C(c1ccc(Cl)cc1)C1(O)CCNC(CO)C1 (stereo not shown) [Compound 435] next
Result: 140

Query: Query CC1CC(O)(C(c2ccc(Cl)cc2)c2cc3cc(Br)ccc3[nH]c2=O)CCN1 (stereo not shown) (as salt: hydrochloride) [Compound 129] next
Result: 240

Query: Query COc1nc2ccc(Cl)cc2cc1C(c1ccc(Cl)cc1)C1(O)CCNCC1F (stereo not shown) [Compound 453] next
Result: 210

Query: Query COc1nc2ccc(S(C)(=O)=O)cc2cc1C(c1ccc(Cl)cc1)C1(O)CCNC(Cc2ccc(F)cc2)C1 (stereo not shown) [Compound 388] next
Result: 103

Query: Query COc1nc2ccc(Cl)cc2cc1C(c1ccc(Cl)cc1)C1(O)CCNC(c2ccc3ccccc3c2)C1 (stereo not shown) (as salt: fumarate) [Compound 430] next
Result: 184

Query: Query COc1nc2ccc(SC)cc2cc1C(c1cccc(Cl)c1)C1(O)CCNC(c2ccc(F)cc2C)C1 (stereo not shown) (as salt: fumarate) [Compound 164] next
Result: 170

Query: Query CS(=O)(=O)c1ccc2[nH]c(=O)c(C(c3cccc(Cl)c3)C3(O)CCNC(Cc4ccc(F)cc4F)C3)cc2c1 (stereo not shown) (as salt: hydrochloride) [Compound 327] next
Result: 248

Query: Query COc1nc2ccc(SC)cc2cc1C(c1ccc(Cl)cc1)C1(O)CCNC(c2ccc(F)cc2C)C1 (stereo not shown) [Compound 244] next
Result: 205

Query: Query COc1nc2ccc(Br)cc2cc1C(c1cccnc1)C1(O)CCNC(Cc2ccccc2)C1 (stereo not shown) (as salt: fumarate) [Compound 427] next
Result: 174

Query: Query CS(=O)(=O)c1ccc2[nH]c(=O)c(C(c3ccc(Cl)cc3)C3(O)CCNC(Cc4ccc(F)cc4)C3)cc2c1 (stereo not shown) next
Result: 140

Entry source: patent US9617244B2
